test system: SK-MEL-2 melanoma; test: NCI tumour cell line growth inhibition, 48 h
measurement-label: TGI

Input line: Looking for the measured TGI of N#CC1=CNc2sccc2S1(=O)=O , can you help?
Output line: > 100 µM

Input line: Then what about the compound CN1CCN(Cc2ccc(NC(=O)c3cncc(C#Cc4cnc(N)c5ccc(F)cc45)c3)cc2C(F)(F)F)CC1 ?
Output line: 2.39 µM

Input line: Next compound: CCC(=O)c1cn(C)c(=O)c2ccccc12
Output line: > 100 µM

Input line: Now try C=CCNC(=S)N1CC(C)C(=O)Nc2ccccc21 (stereo not drawn) .
Output line: > 100 µM

Input line: Try this compound next: O=C(NCCNCCO)N/N=C/c1ccc(Cl)cc1
Output line: > 100 µM

Input line: Please answer likewise for O=C(NCCO)c1ccc(Cl)cc1
Output line: > 100 µM

Input line: Lookup O=C1OS2(OCc3cccc4cccc2c34)c2ccccc21 (stereo not drawn)
Output line: > 100 µM

Input line: Then what about the compound CN1CC(c2ccccc2)N(CCCCN2CC(c3ccccc3)N(C)CC2c2ccccc2)CC1c1ccccc1 (stereo not drawn) ?
Output line: 81.2 µM

Input line: Same thing, different compound: O=C(Nc1ccc(Cl)cc1)Nc1ccc(Cl)c(Cl)c1
Output line: 32.8 µM

Input line: And then NC(=O)COc1ccccc1 , what is it?
Output line: > 100 µM

Input line: Param item: C=CCc1cc2cccc(OC)c2oc1=O
Output line: > 100 µM

Input line: Also CCN(CC)CCC1CC/C(=C\c2ccc(OC)cc2)C1=O (stereo not drawn) ?
Output line: > 100 µM

Input line: Next up: O=C(N=Nc1ccccc1Br)NNc1ccccc1Br
Output line: > 100 µM

Input line: Likewise for COC1/C=C/C(C)C(C(C)C(OC)C(C)CCC(=O)C(C)C(CCC(=O)O)OC)OC(=O)/C=C/C=C(\C)CC(OC)CC2=CC(=O)O[C@@H](C(C)C(OC)CC(OC)/C=C/C(C)C(OC)C1)[C@H]2O (stereo partly drawn) ?
Output line: 1.89 µM

Input line: Then CCOC(=O)C(C)(C)Oc1ccc2c(=O)cc(-c3ccc(Cl)cc3)oc2c1 ?
Output line: > 100 µM

Input line: Moving on to the next compound: N#CCc1nc(C#N)c(N)o1
Output line: > 100 µM

Input line: Ok, now Cc1c(CCCl)c(=O)n2c([nH]c3ccccc32)c1C#N
Output line: 4.46 µM

Input line: Entry CCN(CC)c1ccc(N=Nc2ccc(-c3nc4cccnc4o3)cc2)cc1 please
Output line: > 100 µM

Input line: Follow-up item: COc1cc(/C=C/c2cc(C(F)(F)F)[nH]c(=O)n2)ccc1OCc1ccccc1F
Output line: 28.2 µM

Input line: And the next one, Clc1nc(Oc2ccccc2)nc(-c2cn(-c3ccccc3)c3ccccc23)n1 ?
Output line: 18.5 µM

Input line: How about this compound: O=C1C=C(c2c(O)ccc3ccccc23)c2ccccc2C1=O
Output line: 15.8 µM

Input line: What do we get for CC#CC(O)(C(=O)OC1CCCN(C)C1)C1=CC=CCC1 (stereo not drawn) ?
Output line: > 100 µM

Input line: Param item: COc1cc(C2C3=C(COC3=O)OC(C)(C)Oc3cc4c(cc32)OCO4)cc(OC)c1OC (stereo not drawn)
Output line: 70.1 µM

###

Record form. Attribute: GI50. Fill in for each entry.
tested on: UO-31 renal; assay: NCI tumour cell line growth inhibition, 48 h

Input line: Can you share its GI50? I mean this compound: CC(C)c1ccc(Cc2cnc(NC(=O)c3cc(Br)cs3)s2)cc1
Output line: 3.8 µM

Input line: Moving on to COc1cc(-c2nc3ccc(C)cc3[nH]2)ccc1OCC(=O)N=Nc1c(O)[nH]c2ccccc12
Output line: 12.5 µM

Input line: Similarly, O=C(Oc1ccc(O)c2c(=O)n3c(cc12)[nH]c1ccccc13)c1ccccc1 ?
Output line: 2.19 µM

Input line: What about this compound? CC1(C)C=CC[C@]2(C)[C@H]3CC[C@@H]4[C@H]5[C@H](C(=O)/C=C/c6cccnc6)CC[C@]5(CO)CC[C@@]4(C)[C@]3(C)CC[C@@H]12
Output line: 1.21 µM

Input line: Next: COc1cccc(-c2nc3sccn3c2-c2ccnc(NCCNC(=O)Nc3cccc(C(F)(F)F)c3)n2)c1
Output line: 2.88 µM

Input line: Same for O=[N+]([O-])c1ccc2[nH]cc(-c3c4ccsc4cc4[nH]c5ccc([N+](=O)[O-])cc5c34)c2c1
Output line: 0.827 µM

Input line: Same question, c1ccc2c(c1)[I+]c1ccccc1-2 this time
Output line: > 50 µM

Input line: How about this compound: COC(=O)CCC/C=C\C[C@H]1C=CC(=O)/C1=C/C[C@@H](O)CCc1cccc(C(F)(F)F)c1
Output line: 1.73 µM

Input line: Record: CC(=O)Oc1cc(C)ccc1[C@]1(C)CC[C@H](C)/C1=C\Br
Output line: 8.43 µM

###

Answer each item with its documented GI50.
system: ACHN renal; assay: NCI tumour cell line growth inhibition, 48 h

Input line: Would you mind telling me what GI50 value was observed for CCOC(=O)[C@@H](C)C[C@H](Cc1ccccc1)NC(=O)c1csc([C@@H](C[C@H](C(C)C)N(C)C(=O)[C@@H](NC(=O)[C@H]2C[C@H](O[Si](C)(C)C(C)(C)C)CCN2C)C(C)C)OC(C)=O)n1 ?
Output line: 0.427 µM

Input line: Another compound to check: CC[N+](CCCCCCCCCC[N+](CC)(c1ccccn1)c1ccccn1)(c1ccccn1)c1ccccn1
Output line: 2.8 µM

Input line: Also CC[N+](CC)=c1ccc2nc3c(cc(N)c4ccccc43)oc-2c1 , if possible.
Output line: 0.412 µM

Input line: Now consider CC1=CC[C@@H]2CC[C@]3(C)[C@H](CC[C@@H]4[C@@]5(C)CCCNC(C)(C)[C@@H]5CC[C@]43C)[C@H]2[C@@H]1C and answer again.
Output line: 1.76 µM

Input line: How about COc1cc(OC2OC(C)C(O)C(O)C2O)cc2oc(-c3ccc(O)cc3)c(CC=C(C)C)c(=O)c12 (stereo not drawn) ?
Output line: 22 µM

Input line: // same read-out, input: Cc1ccc(C(=O)c2oc3ccc4c(C)cc(=O)oc4c3c2C)cc1
Output line: 3.65 µM

Input line: Would you kindly repeat that for COc1ccc2c(c1)sc1nc(-c3ccccc3)c(-c3ccsc3)n12 ?
Output line: 6.76 µM

Input line: Also, O=C(Oc1ccc(O)c2c(=O)n3c(cc12)[nH]c1ccccc13)c1ccccc1 please.
Output line: 7.55 µM

###

system: HOP-92 NSCLC; test: NCI tumour cell line growth inhibition, 48 h
measurement-label: GI50

Input line: # query: GI50 of entry COc1cc2nc(-c3ccc(C(F)(F)F)cc3)cc(OCCCN3CCOCC3)c2cc1OC
Output line: 1000 nM

Input line: And then COc1cc(OC)c(/C=C/c2ccc3ccccc3[n+]2C)c(OC)c1 , what is it?
Output line: 951 nM

Input line: Proceed to C=CCn1c(C)nc2cc(Nc3nc(Nc4ccc5nc(C)n(CC=C)c5c4)c4ccccc4n3)ccc21
Output line: 780 nM

Input line: And Cc1cc(/C=C2\SC(=Nc3ccccc3)N(C3CCCC3)C2=O)c(C)n1-c1ccc(Cl)cc1 ?
Output line: > 100000 nM

Input line: For COc1cc2c(cc1C)NC(=O)/C2=C\c1cc(OC)c(OC)c(OC)c1 then?
Output line: 10400 nM

Input line: Proceed to CC1=CC[C@@H]2CC[C@]3(C)[C@H](CC[C@@H]4[C@@]5(C)CCCNC(C)(C)[C@@H]5CC[C@]43C)[C@H]2[C@@H]1C
Output line: 1390 nM

Input line: Now consider COc1cc(-c2cnn(C)c2)ccc1Nc1ncc2ccnc(N[C@@H](C)C(C)(C)C)c2n1 and answer again.
Output line: > 56700 nM

Input line: Queued: CN1CCN(Cc2ccc(NC(=O)c3cncc(C#Cc4cnc(N)c5ccc(F)cc45)c3)cc2C(F)(F)F)CC1
Output line: 989 nM

Input line: Param item: CC(=O)Oc1cc(C)ccc1[C@]1(C)CC[C@H](C)/C1=C\Br
Output line: 2030 nM

Input line: Entry Cc1ccc(C(=O)c2oc3ccc4c(C)cc(=O)oc4c3c2C)cc1 please
Output line: 27100 nM

###

tested on: MDA-MB-231 breast; experiment: NCI tumour cell line growth inhibition, 48 h
Exercise: for every item that follows, state its recorded GI50.

Input line: Give MDA-MB-231 breast GI50 for O=[N+]([O-])c1ccc2[nH]cc(-c3c4ccsc4cc4[nH]c5ccc([N+](=O)[O-])cc5c34)c2c1
Output line: 1.2 µM

Input line: Likewise for COc1ccc(/C=C/c2cc(OC)c(OC)c(OC)c2)cc1NC(=O)/C=C/c1ccc(F)cc1 ?
Output line: 5.8 µM

Input line: Input COc1cc(-c2cnn(C)c2)ccc1Nc1ncc2ccnc(N[C@@H](C)C(C)(C)C)c2n1
Output line: 13.4 µM

Input line: // query: S=C(Nc1ccc(-c2nc3ccccc3[nH]2)cc1)NC1CCCCC1
Output line: 18.1 µM

Input line: // same read-out, input: COc1ccc2c(c1)sc1nc(-c3ccccc3)c(-c3ccsc3)n12
Output line: 5.46 µM

Input line: Lookup CC(=O)Oc1cc(C)ccc1[C@]1(C)CC[C@H](C)/C1=C\Br
Output line: 9.04 µM

Input line: Follow-up item: Oc1ccc(Br)cc1Sc1cc(Br)ccc1O
Output line: 6.58 µM

Input line: Would you mind doing COc1cc(-c2nc3ccc(C)cc3[nH]2)ccc1OCC(=O)N=Nc1c(O)[nH]c2ccccc12 as well?
Output line: 1.64 µM
